Readout: melting point

Solved cases below.
Molecule | Result
CC1CN(c2ncnc(-c3ccccc3)n2)CC(C)N1c1ncnc(CO)n1 (stereo not drawn) | 197 to 198 °C
CC(O)c1ncnc(N2CC(C)N(c3nc(O)nc(-c4ccccc4)n3)C(C)C2)n1 (stereo not drawn) | > 275 °C
Cc1nc(O)nc(N2C(C)CN(c3ncnc(C(C)O)n3)CC2C)n1 (stereo not drawn) | 263 to 265 °C
CC1CN(c2ncnc(CO)n2)CC(C)N1c1ncnc(-c2ccccc2)n1 (stereo not drawn) | 206 to 207 °C
COc1nc(C)nc(N2C(C)CN(c3ncnc(CO)n3)CC2C)n1 (stereo not drawn) | 155 to 160 °C

The record that follows has no melting point shown yet.
# input molecule: CC1CN(c2ncnc(CO)n2)CC(C)N1c1ncnc(CO)n1 (stereo not drawn) ; wanted: its melting point
224 to 225 °C

Origin of values: patent US6894047B2
